Data provenance: ChEMBL document CHEMBL1268937

Reported Activity is given for each of the following molecules.
# Tested on: Rattus norvegicus
# METHOD: Antidyslipidemic activity against triton WR-1339-induced hyperlipidemia in rat assessed as reduction in plasma LDL-cholesterol level at 56 umol/kg, ip after 24 hrs relative to control
# Type: functional
# Design: scale not given: the % may be the effect or the level left

{"columns": ["MOLECULE", "Activity [%]"],
 "data": [
  ["CN1CC(O)(c2ccc(-c3ccccc3)cc2)OC2CCCCC21 (centres undefined)", 51],
  ["Br.COc1ccc2cc(C3(O)CN(C)CCO3)ccc2c1 (centres undefined)", 24],
  ["Br.COc1ccc2cc(-c3ccc(C4(O)CN(C)C5CCCCC5O4)cc3)ccc2c1 (centres undefined)", 54],
  ["Br.COc1ccc2cc(-c3ccc(C4(O)CN(C)CCO4)cc3)ccc2c1 (centres undefined)", 9],
  ["Br.OC1(c2ccc(-c3ccc4ccccc4c3)cc2)CN2CCCCC2CO1 (centres undefined)", 33],
  ["CC(C)(Sc1cc(C(C)(C)C)c(O)c(C(C)(C)C)c1)Sc1cc(C(C)(C)C)c(O)c(C(C)(C)C)c1 [PROBUCOL]", 18],
  ["Br.COc1ccc2cc(C3(O)CN(C)C4CCCCC4O3)ccc2c1 (centres undefined)", 33],
  ["Br.CN1CCOC(O)(c2ccc3ccccc3c2)C1 (centres undefined)", 36],
  ["Br.CN1CC(O)(c2ccc3ccccc3c2)OC2CCCCC21 (centres undefined)", 39],
  ["Br.COc1ccc2cc(-c3ccc(C4(O)CN5CCCCC5CO4)cc3)ccc2c1 (centres undefined)", 29],
  ["Br.CN1CCOC(O)(c2ccc(-c3ccc4ccccc4c3)cc2)C1 (centres undefined)", 59],
  ["Br.CN1CC(O)(c2ccc(-c3ccc4ccccc4c3)cc2)OC2CCCCC21 (centres undefined)", 48],
  ["Br.COc1ccc2cc(C3(O)CN4CCCCC4CO3)ccc2c1 (centres undefined)", 46],
  ["Br.OC1(c2ccc3ccccc3c2)CN2CCCCC2CO1 (centres undefined)", 42]
]}

----------
# METHOD: Inhibition of soybean lipoxygenase measured for 6 mins
# Design: species or system Glycine max
pIC50: −log10 of the molar value.
Reported pIC50 is given for each of the following compounds.

{"columns": ["COMPOUND", "pIC50"],
 "data": [
  ["Br.COc1ccc2cc(-c3ccc(C4(O)CN(C)CCO4)cc3)ccc2c1 (stereo not drawn)", "< 4.00"],
  ["Br.CN1CCOC(O)(c2ccc(-c3ccc4ccccc4c3)cc2)C1 (stereo not drawn)", "< 4.00"],
  ["Br.CN1CC(O)(c2ccc(-c3ccc4ccccc4c3)cc2)OC2CCCCC21 (stereo not drawn)", "< 4.00"]
]}
